Data provenance is PubChem BioAssay (NCI).

Test system: HCT-116 colon
Assay: NCI-60 one-dose screen, 48 h
Conditions: 10 µM unless noted
This is part of a sample that, as a whole, favours compounds with a hit. Of some 83,000 tested, about 20% had one in any assay. Activity calls are given as the source filed them. How the source made its calls: active means growth percent below 10; inactive means the rest.
Permitted responses: Yes for active, No for inactive

Returns: the outcome recorded for CC(C)(C)[Si](C)(C)OCC1OC(n2cnc3c(N)ncnc32)CC1OS(C)(=O)=O (stereo not given) in this assay.
No

Returns: the outcome recorded for CN1CCCN(C(c2ccccc2)c2ccc(Br)cc2)CC1 (stereo not given) in this assay.
No

Returns: the outcome recorded for `COc1cc(-c2ccc(NC(=O)CC(C)=O)c(OC)c2)ccc1NC(=O)CC(C)=O` in this assay.
No

Returns: the outcome recorded for `Cc1ccc2nc(N)nnc2c1` in this assay.
No

Returns: the outcome recorded for `Clc1ccc(/C=C/c2ccccn2)cc1` in this assay.
No

Returns: the outcome recorded for `O=C(CCCl)OCCOc1ccccc1` in this assay.
No

Returns: the outcome recorded for COC1OC(C(COC(C)=O)OC(C)=O)C(OC(C)=O)C(OC(C)=O)C1OC(C)=O (stereo not given) in this assay.
No

Returns: the outcome recorded for `C1C[S+]2CC[S+]1CC2` in this assay.
No

Returns: the outcome recorded for `COC(=O)c1ccccc1C(=O)c1c(C)cc(C)cc1C` in this assay.
No

Returns: the outcome recorded for `O=[N+]([O-])c1ccc2[nH]c(=S)n(/C=C(/c3ccc(Cl)cc3Cl)S(=O)(=O)Cc3ccc(Cl)cc3Cl)c2c1` in this assay.
No

Returns: the outcome recorded for `Nc1cc2c(cc1Cl)C(=O)c1ccccc1C2=O` in this assay.
Yes

Returns: the outcome recorded for `COCC(N)=O` in this assay.
No

Returns: the outcome recorded for `O=C1Nc2ccccc2/C1=C\c1ccccc1O` in this assay.
No

Returns: the outcome recorded for `CN1CCN(C(=S)S)CC1` in this assay.
No

Returns: the outcome recorded for `CSCC[C@@H]1C(=O)N(C)[C@H](C(C)(C)C)N1C(=O)c1ccccc1` in this assay.
No

Returns: the outcome recorded for `O=C1C=C[C@H](O)[C@@]2(CO)O[C@@H]12` in this assay.
No

Returns: the outcome recorded for `O=C(Nc1ccc([N+](=O)[O-])cc1)C(=O)Nc1ccc([N+](=O)[O-])cc1` in this assay.
No

Returns: the outcome recorded for `COc1cc(C(=O)NC(=S)NCc2ccncc2)cc(OC)c1OC` in this assay.
No

Returns: the outcome recorded for `CC(C)(N)CO[C@H]1C[C@H]2CC[C@@]1(C)C2(C)C` in this assay.
No

Returns: the outcome recorded for `Cc1ccc2[nH]c3ccccc3c2c1` in this assay.
No

Returns: the outcome recorded for `C=CCOc1ccc(Cl)cc1Cl` in this assay.
No

Returns: the outcome recorded for `CC1(C)CC(=O)C=C(N)C1` in this assay.
No

Returns: the outcome recorded for `CC(=O)NCNC(C)=O` in this assay.
No

Returns: the outcome recorded for CC12CCC3c4ccc(O)cc4CCC3C1CCC2=O (stereo not given) in this assay.
No

Returns: the outcome recorded for O=C(O)C1CCCN1C(=O)OCc1ccccc1 (stereo not given) in this assay.
No

Returns: the outcome recorded for `COc1ccc2c(ccc[n+]2C)c1` in this assay.
No

Returns: the outcome recorded for COC(CCCl)c1ccc(Cl)cc1 (stereo not given) in this assay.
No

Returns: the outcome recorded for `CC(CO)(CO)C(=O)O` in this assay.
No

Returns: the outcome recorded for `Nc1ccc(F)c(Cl)c1F` in this assay.
No

Returns: the outcome recorded for `O=C(OC1CCCC1)c1ccccc1Cl` in this assay.
No

Returns: the outcome recorded for Nc1ncnc2c1ncn2C1OC(CO)C2OC21 (stereo not given) in this assay.
No

Returns: the outcome recorded for `Cc1ccc(NC(=O)c2ccccc2Cl)cc1` in this assay.
No

Returns: the outcome recorded for `COc1cc(CC#N)c([N+](=O)[O-])cc1OC` in this assay.
No

Returns: the outcome recorded for `CC(=O)C[n+]1ccc(C)cc1Sc1ccccc1C` in this assay.
No

Returns: the outcome recorded for C=C1CC2(OC1=O)C(=O)N(C)c1ccc(I)cc12 (stereo not given) in this assay.
Yes

Returns: the outcome recorded for CC(=O)C1C(=O)C(=O)N(c2ccc(Cl)c(Cl)c2)C1=O (stereo not given) in this assay.
No

Returns: the outcome recorded for `C=COC(=O)C(C)(C)C` in this assay.
No

Returns: the outcome recorded for C=COC(=O)CCOCC(CC)CCCC (stereo not given) in this assay.
No

Returns: the outcome recorded for `S=C=Nc1ccc2ccccc2c1` in this assay.
No

Returns: the outcome recorded for COC1OC(CO)C(OC)C(O)C1O (stereo not given) in this assay.
No
